Data origin: PubChem BioAssay (NCI)

- Tested on: SW-620 colon
- assay: NCI tumour cell line growth inhibition, 48 h
Known TGI of a selection of compounds

compound	TGI
COC(=O)C(=O)C(C(=O)C(=O)Nc1cccc(C(C)=O)c1)c1nc2ccccc2[nH]c1=O (stereo unspecified)	> 100 µM

Challenge: What value of TGI has been reported for the following compound? `NCCCCNc1ccc2c(=O)[nH][nH]c(=O)c2c1`
Response given: > 100 µM

Challenge: Same lookup for CCC(O)(Cc1ccc(OC)cc1)c1ccc(OC)cc1 (stereo unspecified) , please.
Response given: > 100 µM

Challenge: Same lookup for O=c1cccc(C2CC(CO)C3CCCCN3C2)[nH]1 (stereo unspecified) , please.
Response given: > 100 µM

Challenge: Same lookup for `O=C(/C=C/C(=O)N1CCCC1)N1CCCC1` , please.
Response given: > 100 µM

Challenge: Same lookup for `COc1cc(S(=O)(=O)Nc2ccc(C(=O)/C=C/c3ccc(O)cc3)cc2)ccc1F` , please.
Response given: > 100 µM

Challenge: Same lookup for `COc1ccc2c(c1)/C(=C\c1c(Cl)[nH]c3ccc(OC)cc13)C(=O)N2` , please.
Response given: 48.9 µM

###

- Test system: MCF7 breast
- assay: NCI tumour cell line growth inhibition, 48 h
outcome.measure: TGI

Illustrative cases are given below, each with its answer.
compound	target.under.test	TGI
COc1cc(S(=O)(=O)Nc2ccc(C(=O)/C=C/c3ccc(O)cc3)cc2)ccc1F	MCF7 breast	> 100 µM
COc1ccc(-c2oc3c(OC)c(OC)c(OC)c(OC)c3c(=O)c2OC)cc1OC	MCF7 breast	> 100 µM
O=C(O)c1cccc2cccc(-c3cccc4cccc(C(=O)O)c34)c12	MCF7 breast	> 100 µM
CCn1c2ccc(C(=O)CCCN3CCCCC3)cc2c2cc(C(=O)CCCN3CCCCC3)ccc21	MCF7 breast	4.94 µM
Cc1cc2c(cc1Cl)SC1=NN(C)C(N(C)C)N1S2(=O)=O (stereo not drawn)	MCF7 breast	> 100 µM

Next up:
Challenge: What value of TGI has been reported for the following compound? COc1ccc(N2C(=O)[C@H]3CC(C)c4c([nH]c5ccccc45)[C@H]3C2=O)cc1 (stereo partly drawn)
Response given: > 100 µM

###

- Test system: SNB-19 CNS
- assay: NCI tumour cell line growth inhibition, 48 h
outcome.measure: TGI

molecule	val
COc1cccc2c1C(=O)c1c(O)c3c(c(O)c1C2=O)C[C@H](O)C[C@@H]3OC1CC(N)C(O)C(C)O1 (some centres undefined)	15.2 µM

Next up:
Challenge: What value of TGI has been reported for the following molecule? `Nc1nc(Cl)cc(NCC2(O)CC2)n1`
Response given: > 100 µM

###

Known TGI of a selection of compounds
- System: NCI-H522 lung
- assay: NCI tumour cell line growth inhibition, 48 h

Illustrative cases are given below, each with its answer.
compound	outcome.measure	val
CSc1cc(=O)n2c3ccccc3c3ccnc1c32	TGI	> 100 µM
O=c1nc2c(c(-c3ccc(Br)cc3)[nH]1)COC/C2=C\c1ccc(Br)cc1	TGI	> 50 µM
COc1cc(C(c2c(O)c3ccccc3oc2=O)c2c(O)c3ccccc3oc2=O)cc(Br)c1O	TGI	26.8 µM
O=C1NC2CCCCC2N=C1CC(=O)c1ccc(Br)cc1 (stereo not given)	TGI	> 100 µM
COc1ccc(/C=C\c2cc(OC)c(O[Si](C)(C)C(C)(C)C)c(OC)c2)cc1	TGI	> 100 µM
Cc1cc2c(O)c(c1)CN(CC(=O)O)Cc1cc(C)cc(c1O)CN(CC(=O)O)Cc1cc(C)cc(c1O)CN(CC(=O)O)C2	TGI	> 100 µM
C=C(C)OCOCCOC	TGI	> 100 µM
COc1ccc(C2=NN(C=O)C(c3cccc(Nc4ccnc5cc(Cl)ccc45)c3)C2)cc1 (stereo not given)	TGI	12.7 µM

Challenge: What value of TGI has been reported for the following compound? `CCC[n+]1cc2cc(OC)c(OC)cc2c2c1-c1cc3c(cc1C2)OCO3`
Response given: 1.71 µM

Challenge: Same lookup for O=C(N/N=C(/CCN1CCCC1)CC(c1ccccc1)c1c(O)c2ccccc2oc1=O)c1ccncc1 (stereo not given) , please.
Response given: > 100 µM
